Read-out: Cyclin D1 (CCND1), CCND1 (gene 595)
experiment_description: LTEA_HepaRG_CCND1: Life Technologies and Expression Analysis (LTEA) Assay for Cyclin D1 (CCND1) using HepaRG (AID 2283451)
protocol_conditions: mRNA level, 48 h; actives raise or lower the signal
Calls of active or inactive are those of the source. The calls were made as follows: active = hit-call score of the fitted dose curve at least 0.9, where 1 is the maximum; inactive = score below 0.9.
Respond with a class label; see true (1) for active, false (0) for inactive

Worked examples, 3 compounds total:
CCOP(=S)(OCC)Oc1cc(C)nc(C(C)C)n1 | false (0)
CC(C1CC1)C(O)(Cn1cncn1)c1ccc(Cl)cc1 (stereo unspecified) | false (0)
CCCSP(=O)(OCC)SCCC | false (0)

[Q] Hello, I am checking results. What call was entered for O=[N+]([O-])c1cc(C(F)(F)F)c(Cl)c([N+](=O)[O-])c1Nc1ncc(C(F)(F)F)cc1Cl ?
[A] true (1)

[Q] Hello, I am checking results. What call was entered for CCCCOC(=O)[C@@H](C)Oc1ccc(Oc2ccc(C#N)cc2F)cc1 ?
[A] false (0)

[Q] Hello, I am checking results. What call was entered for COc1ccc(C(=CC(=O)N2CCOCC2)c2ccc(Cl)cc2)cc1OC ?
[A] false (0)

###

experiment_description: CCTE_Mundy_HCI_hNP1_Casp3_7: CCTE's Caspase-Glo 3/7 Assay in human neuroprogenitor cells for Apoptosis, Mundy Lab (AID 2284240)
Calls of active or inactive are those of the source. The calls were made as follows: active = hit-call score of the fitted dose curve at least 0.9, where 1 is the maximum; inactive = score below 0.9.
reported_endpoint: AC50

Recorded results for 4 compounds are shown here.
CCCSP(=O)(OCC)Oc1ccc(Br)cc1Cl (stereo not given) | inactive
S=C1NCCN1 | inactive
CCOP(=S)(OCC)Oc1ccc2c(C)c(Cl)c(=O)oc2c1 | 73.8 µM (active)
CON=C(C(=O)OC)c1ccccc1CON=C(C)c1cccc(C(F)(F)F)c1 | 50 µM (active)

With those in mind, consider the next compound.
// AC50 value for CCCSP(=O)(OCC)SCCC : inactive

###

experiment_description: Tanguay_ZF_120hpf_EYE_legacy: (Legacy) Oregon State University Tanguay Lab 120 Hour Post-fertilization zebrafish Assay for Eye Malformation (AID 2283636);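 also: binary presence or absence of eye malformation scored by brightfield in 120 hpf larvae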
Results filed as inconclusive are left out. The source made the active and inactive calls. How the source made its calls: active means hit-call score of the fitted dose curve at least 0.9, where 1 is the maximum; inconclusive means response in the unintended direction; inactive means score below 0.9.
Respond with a class label; see active, inactive

Worked examples, 2 compounds total:
COP(=O)(OC)C(O)C(Cl)(Cl)Cl (stereo not drawn) | inactive
N#CSCSC#N | inactive

[Q] Hello, I am checking results. What call was entered for C#CCC1=C(C)C(OC(=O)C2C(C=C(C)C)C2(C)C)CC1=O (stereo not drawn) ?
[A] inactive

###

Read-out: Insulin-like growth factor-binding protein 1 (IGFBP1), IGFBP1 (gene 3484)
experiment_description: LTEA_HepaRG_IGFBP1: Life Technologies and Expression Analysis (LTEA) Assay for Insulin-like growth factor-binding protein 1 (IGFBP1) using HepaRG (AID 2283508)
protocol_conditions: mRNA level, 48 h; actives raise or lower the signal
Calls of active or inactive are those of the source. How the source made its calls: active means hit-call score of the fitted dose curve at least 0.9, where 1 is the maximum; inactive means score below 0.9.
Respond with a class label; see active, inactive

CCC(CC)Nc1c([N+](=O)[O-])cc(C)c(C)c1[N+](=O)[O-] | inactive
CCOP(=S)(OCC)OC(Cl)C(Cl)(Cl)Cl (stereo not given) | inactive
CCNc1nc(Cl)nc(NC(C)(C)C#N)n1 | inactive
CCC(=O)Nc1ccc(Cl)c(Cl)c1 | active

[Q] Hello, I am checking results. What call was entered for CC1=NNC(=O)N(/N=C/c2cccnc2)C1 ?
[A] inactive

[Q] Hello, I am checking results. What call was entered for CCCCOC(=O)c1ccccc1C(=O)O ?
[A] inactive

[Q] Hello, I am checking results. What call was entered for CCc1cccc(C)c1N(C(=O)CCl)C(C)COC (stereo not given) ?
[A] inactive

[Q] Hello, I am checking results. What call was entered for CC[C@H](C)[C@H]1O[C@]2(C=C[C@@H]1C)C[C@@H]1C[C@@H](C/C=C(\C)[C@@H](O[C@H]3C[C@H](OC)[C@@H](O[C@H]4C[C@H](OC)[C@@H](NC)[C@H](C)O4)[C@H](C)O3)[C@@H](C)/C=C/C=C3\CO[C@@H]4[C@H](O)C(C)=C[C@@H](C(=O)O1)[C@]34O)O2 ?
[A] active

[Q] Hello, I am checking results. What call was entered for CCC(=NOC/C=C/Cl)C1=C(O)CC(C2CCOCC2)CC1=O (stereo not given) ?
[A] inactive

[Q] Hello, I am checking results. What call was entered for Nc1nc(N)nc(NC2CC2)n1 ?
[A] inactive

###

Read-out: Pselectin, SELP (gene 6403)
experiment_description: BSK_4H_Pselectin: BioMAP Diversity Plus: 4H Assay for Pselectin Biomarker Activity (AID 2283026)
protocol_conditions: primary human endothelial cells (HUVEC); actives raise or lower the signal
The source made the active and inactive calls. The calls were made as follows: active = hit-call score of the fitted dose curve at least 0.9, where 1 is the maximum; inactive = score below 0.9.
Respond with a class label; see active, inactive

Worked examples, 6 compounds total:
COc1cc(OC)nc(Sc2cccc(Cl)c2C(=O)O)n1 | inactive
CCOP(=O)(OCC)Oc1cc(C)nc(C(C)C)n1 | inactive
CCCOc1nn(C(=O)NS(=O)(=O)c2ccccc2C(=O)OC)c(=O)n1C | inactive
CC(C)[C@H](C(=O)O[C@H](C#N)c1cccc(Oc2ccccc2)c1)c1ccc(Cl)cc1 | inactive
CSc1nnc(C(C)(C)C)c(=O)n1N | inactive
C[Si](Cn1cncn1)(c1ccc(F)cc1)c1ccc(F)cc1 | inactive

[Q] Hello, I am checking results. What call was entered for CC(Oc1cccc(Cl)c1)C(=O)O (configuration not stated) ?
[A] inactive

[Q] Hello, I am checking results. What call was entered for Cc1ccn2nc(S(=O)(=O)Nc3c(F)cccc3F)nc2n1 ?
[A] inactive

[Q] Hello, I am checking results. What call was entered for CCOP(=S)(OCC)Oc1ccc2c(C)c(Cl)c(=O)oc2c1 ?
[A] inactive

[Q] Hello, I am checking results. What call was entered for CCOC(=O)COc1cc(-c2nn(C)c(OC(F)F)c2Cl)c(F)cc1Cl ?
[A] active

[Q] Hello, I am checking results. What call was entered for CC1=NNC(=O)N(/N=C/c2cccnc2)C1 ?
[A] inactive

[Q] Hello, I am checking results. What call was entered for CCOP(=O)(NC(C)C)Oc1ccc(SC)c(C)c1 (configuration not stated) ?
[A] inactive

###

Read-out: Interferon-gamma inducible Protein 10 (IP10), CXCL10 (gene 3627)
experiment_description: BSK_hDFCGF_IP10: BioMAP Diversity Plus: hDFCGF Assay for Interferon-gamma inducible Protein 10 (IP10) Biomarker Activity (AID 2283053)
protocol_conditions: primary human foreskin fibroblasts; actives raise or lower the signal
The source made the active and inactive calls. The calls were made as follows: active = hit-call score of the fitted dose curve at least 0.9, where 1 is the maximum; inactive = score below 0.9.
Respond with a class label; see 1 (yes) (active), 0 (no) (inactive)

Worked examples, 5 molecules total:
COP(=O)(OC)SCn1c(=O)oc2cc(Cl)cnc21 | 1 (yes)
Cc1ccn2nc(S(=O)(=O)Nc3c(F)cccc3F)nc2n1 | 0 (no)
CCc1cccc(C)c1N(C(=O)CCl)C(C)COC (centres undefined) | 1 (yes)
CCCCN(CC)c1c([N+](=O)[O-])cc(C(F)(F)F)cc1[N+](=O)[O-] | 1 (yes)
CCOC(=O)COc1cc(-c2nn(C)c(OC(F)F)c2Cl)c(F)cc1Cl | 0 (no)

[Q] Hello, I am checking results. What call was entered for FC(F)C(F)(F)OCC(Cn1cncn1)c1ccc(Cl)cc1Cl (centres undefined) ?
[A] 1 (yes)

[Q] Hello, I am checking results. What call was entered for CC(Oc1cccc(Cl)c1)C(=O)O (centres undefined) ?
[A] 0 (no)

[Q] Hello, I am checking results. What call was entered for N#CSCSC#N ?
[A] 1 (yes)

[Q] Hello, I am checking results. What call was entered for CCCCOC(=O)[C@@H](C)Oc1ccc(Oc2ccc(C#N)cc2F)cc1 ?
[A] 0 (no)

[Q] Hello, I am checking results. What call was entered for CSC1=N[C@@](C)(c2ccccc2)C(=O)N1Nc1ccccc1 ?
[A] 0 (no)

[Q] Hello, I am checking results. What call was entered for O=C(O)c1cc(Oc2ccc(C(F)(F)F)cc2Cl)ccc1[N+](=O)[O-] ?
[A] 0 (no)

[Q] Hello, I am checking results. What call was entered for O=c1ccc(=O)[nH][nH]1 ?
[A] 0 (no)

[Q] Hello, I am checking results. What call was entered for COP(=O)(OC)OC(Br)C(Cl)(Cl)Br (centres undefined) ?
[A] 1 (yes)

[Q] Hello, I am checking results. What call was entered for CCCOCC(=Nc1ccc(Cl)cc1C(F)(F)F)n1ccnc1 ?
[A] 1 (yes)

[Q] Hello, I am checking results. What call was entered for CC[C@H](C)[C@H]1O[C@]2(C=C[C@@H]1C)C[C@@H]1C[C@@H](C/C=C(\C)[C@@H](O[C@H]3C[C@H](OC)[C@@H](O[C@H]4C[C@H](OC)[C@@H](NC)[C@H](C)O4)[C@H](C)O3)[C@@H](C)/C=C/C=C3\CO[C@@H]4[C@H](O)C(C)=C[C@@H](C(=O)O1)[C@]34O)O2 ?
[A] 1 (yes)

[Q] Hello, I am checking results. What call was entered for CCOP(=O)(OCC)Oc1cc(C)nc(C(C)C)n1 ?
[A] 0 (no)

[Q] Hello, I am checking results. What call was entered for CON=C(C(=O)OC)c1ccccc1CON=C(C)c1cccc(C(F)(F)F)c1 ?
[A] 0 (no)

[Q] Hello, I am checking results. What call was entered for CN(C)NC(=O)CCC(=O)O ?
[A] 0 (no)

[Q] Hello, I am checking results. What call was entered for COP(=O)(OC)C(O)C(Cl)(Cl)Cl (centres undefined) ?
[A] 0 (no)

[Q] Hello, I am checking results. What call was entered for C#CC(C)(C)NC(=O)c1cc(Cl)cc(Cl)c1 ?
[A] 1 (yes)

[Q] Hello, I am checking results. What call was entered for CCCSP(=O)(OCC)Oc1ccc(Br)cc1Cl (centres undefined) ?
[A] 1 (yes)

[Q] Hello, I am checking results. What call was entered for CNC(=O)ON=C(C)SC ?
[A] 0 (no)

[Q] Hello, I am checking results. What call was entered for CNC(=O)Oc1cccc2c1OC(C)(C)O2 ?
[A] 0 (no)

[Q] Hello, I am checking results. What call was entered for CN(C)C(=O)Nc1cccc(C(F)(F)F)c1 ?
[A] 0 (no)
